Would you kindly list RBD.mmh Bound at pH 7.4 (RU) for each of these binders?
target: SARS-COV-2 RBD-MMH (SARS-CoV-2); assay: SPR 37C, run with dissociation at pH 7.4
Kindly provide the numeric value in RU only, without the unit symbol.

Inquiry: Give its RBD.mmh Bound at pH 7.4 (RU) value. Item: mAb15159 (antibody, V domains shown) VH: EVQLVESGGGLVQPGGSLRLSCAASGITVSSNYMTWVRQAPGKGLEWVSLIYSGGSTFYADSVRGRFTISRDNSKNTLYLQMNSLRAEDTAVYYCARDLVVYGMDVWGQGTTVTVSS VL: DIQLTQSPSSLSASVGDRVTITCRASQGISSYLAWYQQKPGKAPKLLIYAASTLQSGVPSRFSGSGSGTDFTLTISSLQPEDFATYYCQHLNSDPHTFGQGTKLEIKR
Reply text: 31.9

Inquiry: Give its RBD.mmh Bound at pH 7.4 (RU) value. Item: mAb15157 (antibody, V domains shown) VH: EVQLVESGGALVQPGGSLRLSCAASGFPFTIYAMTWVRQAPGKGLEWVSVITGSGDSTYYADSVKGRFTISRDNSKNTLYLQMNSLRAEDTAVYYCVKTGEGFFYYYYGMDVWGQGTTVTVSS VL: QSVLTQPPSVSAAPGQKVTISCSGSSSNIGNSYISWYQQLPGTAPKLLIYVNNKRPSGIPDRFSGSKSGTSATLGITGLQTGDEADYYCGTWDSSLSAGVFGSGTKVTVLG
Reply text: 106

Inquiry: Give its RBD.mmh Bound at pH 7.4 (RU) value. Item: mAb15164 (antibody, V domains shown) VH: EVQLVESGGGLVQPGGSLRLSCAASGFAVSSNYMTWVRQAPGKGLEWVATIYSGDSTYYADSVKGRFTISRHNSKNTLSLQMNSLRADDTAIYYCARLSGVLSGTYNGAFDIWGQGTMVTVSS VL: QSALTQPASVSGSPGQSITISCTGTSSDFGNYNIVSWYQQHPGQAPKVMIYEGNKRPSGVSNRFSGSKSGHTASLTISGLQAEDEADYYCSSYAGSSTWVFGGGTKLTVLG
Reply text: 145

Inquiry: Give its RBD.mmh Bound at pH 7.4 (RU) value. Item: mAb15165 (antibody, V domains shown) VH: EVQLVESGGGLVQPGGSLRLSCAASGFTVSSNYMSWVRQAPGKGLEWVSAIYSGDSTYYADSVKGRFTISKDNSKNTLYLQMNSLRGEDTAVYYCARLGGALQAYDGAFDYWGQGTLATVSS VL: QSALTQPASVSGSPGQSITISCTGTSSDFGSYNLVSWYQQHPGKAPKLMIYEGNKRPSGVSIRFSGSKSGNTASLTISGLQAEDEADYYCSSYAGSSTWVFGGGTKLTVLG
Reply text: 110

Inquiry: Give its RBD.mmh Bound at pH 7.4 (RU) value. Item: mAb15170 (antibody, V domains shown) VH: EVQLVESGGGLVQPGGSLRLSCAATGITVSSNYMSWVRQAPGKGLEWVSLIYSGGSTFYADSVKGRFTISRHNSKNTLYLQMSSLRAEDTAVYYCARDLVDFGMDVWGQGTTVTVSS VL: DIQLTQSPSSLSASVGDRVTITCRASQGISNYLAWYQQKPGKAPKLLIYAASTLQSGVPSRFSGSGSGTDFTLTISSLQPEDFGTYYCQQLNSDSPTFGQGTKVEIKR
Reply text: 120

Inquiry: Give its RBD.mmh Bound at pH 7.4 (RU) value. Item: mAb15158 (antibody, V domains shown) VH: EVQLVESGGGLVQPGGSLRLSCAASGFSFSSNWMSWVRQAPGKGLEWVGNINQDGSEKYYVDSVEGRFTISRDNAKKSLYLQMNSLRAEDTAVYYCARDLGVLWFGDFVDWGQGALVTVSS VL: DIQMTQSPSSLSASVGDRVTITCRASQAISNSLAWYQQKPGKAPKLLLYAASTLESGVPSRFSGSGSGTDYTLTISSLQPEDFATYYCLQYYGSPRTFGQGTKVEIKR
Reply text: 111

Inquiry: Give its RBD.mmh Bound at pH 7.4 (RU) value. Item: mAb15160 (antibody, V domains shown) VH: EVQLVESGGGLVQPGGSLRLSCSASGFTFSRYAMYWVRQAPGKGLEYVSAISSDGGSTYDADSVKGRFTISRANSKNTLYLQMSSLRAEDTAVYYCVKGLRELLYYYYGMDVWGQGTTVTVSS VL: DIQMTQSPSSLSASVGDRVTITCRAGQSISSFLNWYQQKPGKAPKLLIYAASSLQSGVPSRFSGSGSGTDFTLTISSLQPEDFATYYCQQSYITPFTFGPGTKVDIKR
Reply text: 58.2

Inquiry: Give its RBD.mmh Bound at pH 7.4 (RU) value. Item: mAb15151 (antibody, V domains shown) VH: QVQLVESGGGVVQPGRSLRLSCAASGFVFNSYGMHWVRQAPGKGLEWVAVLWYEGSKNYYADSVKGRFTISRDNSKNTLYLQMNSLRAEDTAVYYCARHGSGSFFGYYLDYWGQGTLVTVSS VL: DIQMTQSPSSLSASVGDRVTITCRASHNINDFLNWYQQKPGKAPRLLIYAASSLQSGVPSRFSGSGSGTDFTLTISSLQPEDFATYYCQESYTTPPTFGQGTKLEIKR
Reply text: 219

Inquiry: Give its RBD.mmh Bound at pH 7.4 (RU) value. Item: mAb15162 (antibody, V domains shown) VH: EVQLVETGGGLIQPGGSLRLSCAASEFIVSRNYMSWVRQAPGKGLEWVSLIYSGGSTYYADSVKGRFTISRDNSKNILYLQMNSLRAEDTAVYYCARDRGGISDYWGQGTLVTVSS VL: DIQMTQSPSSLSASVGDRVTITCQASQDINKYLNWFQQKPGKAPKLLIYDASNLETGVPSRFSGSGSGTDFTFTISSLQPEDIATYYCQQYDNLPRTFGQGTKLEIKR
Reply text: 116

Inquiry: Give its RBD.mmh Bound at pH 7.4 (RU) value. Item: mAb15163 (antibody, V domains shown) VH: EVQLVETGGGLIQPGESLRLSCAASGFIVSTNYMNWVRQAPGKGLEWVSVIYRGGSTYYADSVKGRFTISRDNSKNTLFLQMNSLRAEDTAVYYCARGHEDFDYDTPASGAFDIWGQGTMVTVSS VL: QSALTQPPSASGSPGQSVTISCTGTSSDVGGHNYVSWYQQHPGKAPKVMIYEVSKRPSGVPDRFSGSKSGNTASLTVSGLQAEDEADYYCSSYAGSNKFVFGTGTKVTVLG
Reply text: 81.9

Inquiry: Give its RBD.mmh Bound at pH 7.4 (RU) value. Item: mAb15150 (antibody, V domains shown) VH: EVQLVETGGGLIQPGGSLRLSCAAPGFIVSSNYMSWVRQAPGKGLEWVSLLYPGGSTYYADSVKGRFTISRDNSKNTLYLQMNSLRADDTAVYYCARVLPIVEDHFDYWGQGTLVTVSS VL: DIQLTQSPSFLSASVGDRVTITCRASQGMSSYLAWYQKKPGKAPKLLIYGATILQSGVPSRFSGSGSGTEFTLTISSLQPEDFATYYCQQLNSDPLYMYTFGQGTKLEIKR
Reply text: 87.8
